Just for reference, the kinase profiling compilation of Christmann-Franck et al. (2016) is where these values come from.

# reported residual activity; entries follow
target: RPS6KA1 KD1 KD2 (human); test: radiometric filter-binding kinase assay, Kinase HotSpot; settings: compound 0.5 µM; ATP 10 µM
parameterMeasured: residual activity (%)

O=c1[nH]c2ccccc2n1C1CCN(Cc2ccc(-c3nc4cc5[nH]cnc5cc4nc3-c3ccccc3)cc2)CC1 101
Cn1cc(/C=C2\C(=O)Nc3ccc(S(N)(=O)=O)cc32)c2ccccc21 12.7
CCc1nc(-c2ccc(OC)cc2)[nH]c1-c1ccncc1 106
CCCCc1c(-c2ccc(O)cc2)[nH]c2nccnc12 82.6
COc1cc2c(N3CCN(C(=O)Nc4ccc(OC(C)C)cc4)CC3)ncnc2cc1OCCCN1CCCCC1 94.8
c1ccc(-c2cnc(Nc3ccc(OCCN4CCCC4)cc3)s2)cc1 78
COc1cccc(-c2cc(=O)c3ccccc3o2)c1N 92.7
O=C1NC(=O)c2cc(Nc3ccc(F)cc3)c(Nc3ccc(F)cc3)cc21 97.7
O=C1NC(=O)c2c1c1c3ccccc3[nH]c1c1[nH]c3cc(Br)ccc3c21 58.4
COc1cc2c(Nc3ccc(Br)cc3F)ncnc2cc1OCC1CCN(C)CC1 102
FC(F)(F)c1ccc(/C=C/c2nc(COc3ccc(CCCCn4ccnn4)cc3)co2)cc1 97.9
Cc1cc(Nc2nc(-c3ccccc3)nc3ccccc23)n[nH]1 58
N#C/C(=C1/Nc2ccccc2S1)c1ccnc(NCCc2cccnc2)n1 79
O=C(c1ccccc1)c1ccc(N2CCOCC2)cc1O 96.2
Nc1ncnc2c1cnn2-c1ccccc1 79.5
COc1cc2c(cc1OC)-c1[nH]nc(Nc3cccc(F)c3)c1C2 84.1
